target: SIRT1 (Homo sapiens); test: Mass spectrometry based assay to identify modulators of SIRT1 activity (deacetylation of p53-based acetylated peptide substrate); assay type: biochemical; conditions: 25 min, SIRT1 activation, read-out: % FOLD ACT. (percent maximum fold activation)
Provide the recorded Emax for the entries that follow.

Looking up `CN(C)c1cccc(-c2ccc3c(n2)N(C(=O)Nc2cncc(F)c2)CC(C)(C)O3)c1` , I see its Emax listed as > 200%

Looking up `CN1C(=O)CN(C(=O)Nc2ncn[nH]2)c2nc(-c3cccc(C(F)(F)F)c3)ccc21` , I see its Emax listed as ≤ 200%

Looking up `CC1(C)CCN(C(=O)Nc2cccnc2)c2nc(-c3cccc(Cl)c3)ccc2C1=O` , I see its Emax listed as ≤ 200%

====

biological target: SIRT1 (Homo sapiens, UniProt Q96EB6); assay: Mass spectrometry based assay to identify modulators of SIRT1 activity (deacetylation of p53-based acetylated peptide substrate); type: biochemical; conditions: 25 min, SIRT1 activation, read-out: % FOLD ACT. (percent maximum fold activation)
Sequence (Q96EB6 whole entry): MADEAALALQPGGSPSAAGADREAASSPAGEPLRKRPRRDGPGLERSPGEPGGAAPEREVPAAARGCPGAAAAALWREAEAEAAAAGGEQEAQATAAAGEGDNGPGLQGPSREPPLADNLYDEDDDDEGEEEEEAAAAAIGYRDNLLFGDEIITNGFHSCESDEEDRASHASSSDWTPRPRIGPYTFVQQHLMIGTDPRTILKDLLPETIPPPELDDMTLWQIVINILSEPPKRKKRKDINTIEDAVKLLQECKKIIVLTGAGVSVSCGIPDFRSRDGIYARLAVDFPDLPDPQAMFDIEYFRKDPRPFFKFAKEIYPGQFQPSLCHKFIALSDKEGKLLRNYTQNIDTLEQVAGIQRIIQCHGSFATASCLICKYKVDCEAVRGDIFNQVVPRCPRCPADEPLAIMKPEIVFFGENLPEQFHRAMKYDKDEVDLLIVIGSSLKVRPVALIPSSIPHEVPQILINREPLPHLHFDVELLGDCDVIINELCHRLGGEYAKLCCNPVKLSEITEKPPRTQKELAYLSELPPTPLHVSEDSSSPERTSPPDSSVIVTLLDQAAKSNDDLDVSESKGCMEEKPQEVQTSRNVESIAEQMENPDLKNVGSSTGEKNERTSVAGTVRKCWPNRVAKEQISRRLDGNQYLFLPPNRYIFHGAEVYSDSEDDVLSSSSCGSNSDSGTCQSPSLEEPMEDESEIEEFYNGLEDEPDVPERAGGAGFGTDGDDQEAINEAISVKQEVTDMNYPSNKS
Provide the recorded Emax for the entries that follow.

Looking up `O=C(Nc1ccncn1)N1CCCCc2ccc(-c3cccc(Cl)c3)nc21` , I see its Emax listed as > 200%

Looking up `Cc1csc(NC(=O)N2CC(C)(C)Oc3ccc(-c4cccc(N5CCOCC5)c4)nc32)n1` , I see its Emax listed as > 200%

Looking up `O=C(Nc1ccncc1)N1CCOc2ccc(-c3cccc(Cl)c3)nc21` , I see its Emax listed as > 200%

Looking up `O=C(Nc1ccncn1)N1CCCOc2ccc(-c3cccc(F)c3)nc21` , I see its Emax listed as > 200%

Looking up `O=C(Nc1ccncc1)N1CCOc2c(N3CCCC3)nc(-c3cccc(F)c3)nc21` , I see its Emax listed as ≤ 200%

Looking up `O=C(Nc1ccncc1)N1CCCOc2ccc(-c3cccc(Cl)c3)nc21` , I see its Emax listed as > 200%

Looking up `O=C(Nc1ccncc1)N1CCOc2ncc(-c3cccc(C(F)(F)F)c3)nc21` , I see its Emax listed as ≤ 200%

Looking up `O=C(Nc1ncccn1)N1CCCc2ccc(-c3cccc(Cl)c3)nc21` , I see its Emax listed as > 200%

Looking up `Cc1cncc(NC(=O)N2CC(C)(C)Oc3ccc(-c4cccc(Cl)c4)nc32)c1` , I see its Emax listed as > 200%

Looking up `O=C(Nc1cccnc1)N1CCCc2ccc(-c3cccc(F)c3)nc21` , I see its Emax listed as > 200%

Looking up `O=C(Nc1ccncc1)N1CCOc2cnc(-c3cccc(C(F)(F)F)c3)nc21` , I see its Emax listed as ≤ 200%

Looking up `Cc1cc(C)nc(NC(=O)N2CCOc3ncc(-c4cccc(C(F)(F)F)c4)nc32)c1` , I see its Emax listed as > 200%

Looking up `O=C1CCCN(C(=O)Nc2ccncc2F)c2nc(-c3cccc(C(F)(F)F)c3)ccc21` , I see its Emax listed as > 200%

Looking up `CCN1CCCN(C(=O)Nc2ccncn2)c2nc(-c3cccc(Cl)c3)ccc21` , I see its Emax listed as > 200%

Looking up `Cc1cc(NC(=O)N2CCCOc3ccc(-c4cccc(Cl)c4)nc32)ncc1F` , I see its Emax listed as ≤ 200%

Looking up Cc1cc(OCC(O)CO)nc(NC(=O)N2CCC(C)(C)c3ccc(-c4cccc(C(F)(F)F)c4)nc32)n1 (stereo not drawn) , I see its Emax listed as > 200%

Looking up `O=C(Nc1ccnc(N2CCC2)c1)N1CCCc2ccc(-c3cccc(F)c3)nc21` , I see its Emax listed as > 200%

Looking up `Cc1cc(NC(=O)N2CCCOc3ccc(-c4cccc(Cl)c4)nc32)ccn1` , I see its Emax listed as > 200%

Looking up `Cc1cccnc1NC(=O)N1CCCOc2ccc(-c3cccc(Cl)c3)nc21` , I see its Emax listed as ≤ 200%

Looking up `O=C(Nc1cc(C(F)(F)F)ccn1)N1CCOc2ccc(-c3cccc(C(F)(F)F)c3)nc21` , I see its Emax listed as ≤ 200%

Looking up `O=C(Nc1ccncc1)N1CCOc2ccc(-c3cccc(F)c3)nc21` , I see its Emax listed as > 200%

Looking up `Cc1ccc(-c2ccc3c(n2)N(C(=O)Nc2nc(C)cs2)CCCO3)cn1` , I see its Emax listed as > 200%

Looking up `O=C(Nc1ccncn1)N1CCCOc2ccc(-c3cccc(Cl)c3)nc21` , I see its Emax listed as > 200%

Looking up `Cc1ccc(NC(=O)N2CCOc3ccc(-c4cccc(C(F)(F)F)c4)nc32)cn1` , I see its Emax listed as > 200%

Looking up `O=C(Nc1ccncc1)N1CCOc2c(N3CCNCC3)nc(-c3cccc(F)c3)nc21` , I see its Emax listed as ≤ 200%

Looking up `CC1(C)CCN(C(=O)Nc2cccc(OC[C@@H](O)CO)n2)c2nc(-c3cccc(C(F)(F)F)c3)ccc21` , I see its Emax listed as > 200%

Looking up `CC1(C)CCN(C(=O)Nc2ncccc2F)c2nc(-c3cccc(C(F)(F)F)c3)ccc21` , I see its Emax listed as ≤ 200%

====

target: SIRT1 (Homo sapiens, UniProt Q96EB6); test: Mass spectrometry based assay to identify modulators of SIRT1 activity (deacetylation of p53-based acetylated peptide substrate); format: biochemical; details: SIRT1 activation
readout.kind: EC1.5

Some entries whose results are on file:
Cc1cc(-c2cccc(C(F)(F)F)c2)nc2c1OCCN2C(=O)Nc1ccncc1F = A (EC1.5<1.0 μM)
CC1(C)CN(C(=O)Nc2ccncc2)c2nc(-c3cccc(C(F)(F)F)c3)ccc2O1 = A (EC1.5<1.0 μM)
Cc1ncccc1NC(=O)N1CCOc2ccc(-c3cccc(C(F)(F)F)c3)nc21 = B (EC1.5 1-25 μM)
O=C(Nc1ncccn1)N1CCCc2ccc(-c3cccc(Cl)c3)nc21 = B (EC1.5 1-25 μM)
CN1C(=O)CN(C(=O)Nc2ccncn2)c2nc(-c3cccc(C(F)(F)F)c3)ccc21 = B (EC1.5 1-25 μM)
Cc1ccc(-c2ccc3c(n2)N(C(=O)Nc2cc(C)nc(C)c2)CCCO3)cn1 = B (EC1.5 1-25 μM)
CN1CCN(C(=O)Nc2cncnc2)c2nc(-c3cccc(C(F)(F)F)c3)ccc21 = A (EC1.5<1.0 μM)
CN1C(=O)CN(C(=O)Nc2cccc(N3CCOCC3)n2)c2nc(-c3cccc(C(F)(F)F)c3)ccc21 = A (EC1.5<1.0 μM)

Looking up `Cc1cc(C)nc(NC(=O)N2CCN(C)c3ccc(-c4cccc(C(F)(F)F)c4)nc32)c1` , I see its EC1.5 listed as A (EC1.5<1.0 μM)

====

Molecular target: SIRT1 (Homo sapiens)
Assay: Mass spectrometry based assay to identify modulators of SIRT1 activity (deacetylation of p53-based acetylated peptide substrate)
Type: biochemical
Conditions: SIRT1 activation
Description: A mass spectrometry based assay was used to identify modulators of SIRT1 activity. The mass spectrometry based assay utilizes a peptide having 20 amino acid residues as follows: Ac-EE-K(biotin)-GQSTSSHSK(Ac)NleSTEG-K(5TMR)-EE-NH2 (SEQ ID NO: 1) wherein K(Ac) is an acetylated lysine residue and Nle is a norleucine. The peptide is labeled with the fluorophore 5TMR (excitation 540 nm/emission 580 nm) at the C-terminus. The sequence of the peptide substrate is based on p53 with several modifications. […]
readout.kind: EC1.5

Cc1cc(OCC(O)CO)nc(NC(=O)N2CCCc3ccc(-c4cccc(C(F)(F)F)c4)nc32)n1 (stereo not shown) = B (EC1.5 1-25 μM)
Cc1csc(NC(=O)N2CCCc3ccc(-c4cccc(F)c4)nc32)n1 = A (EC1.5<1.0 μM)
Cc1cncc(NC(=O)N2CC(C)(C)Oc3ccc(-c4cccc(N5CC[C@H](F)C5)c4)nc32)c1 = A (EC1.5<1.0 μM)
Cc1cc(NC(=O)N2CCOc3ccc(-c4c(C)noc4C)nc32)cc(C)n1 = B (EC1.5 1-25 μM)
Cc1cc(NC(=O)N2CC(C)(C)Oc3ccc(-c4cccc(N5CCCC5)c4)nc32)cc(C)n1 = A (EC1.5<1.0 μM)

Looking up `O=C(Nc1ccnc(N2CCC2)c1)N1CCOc2ccc(-c3cccc(F)c3)nc21` , I see its EC1.5 listed as A (EC1.5<1.0 μM)

Looking up `O=C(Nc1cccc(N2CCC2)n1)N1CCOc2ccc(-c3cccc(C(F)(F)F)c3)nc21` , I see its EC1.5 listed as B (EC1.5 1-25 μM)

Looking up `Cc1cc(NC(=O)N2CC(C)(C)Oc3ccc(-c4cccc(N5CCOCC5)c4)nc32)cc(C)n1` , I see its EC1.5 listed as A (EC1.5<1.0 μM)

Looking up `CN1CCN(C(=O)Nc2ccnc(N3CCC3)c2)c2nc(-c3cccc(C(F)(F)F)c3)ccc21` , I see its EC1.5 listed as A (EC1.5<1.0 μM)

====

Provide the recorded EC1.5 (concentration giving 1.5-fold activation) for the entries that follow.
target: SIRT1 (Homo sapiens); assay: Mass spectrometry based assay to identify modulators of SIRT1 activity (deacetylation of p53-based acetylated peptide substrate); format: biochemical

Looking up `Cc1cncc(NC(=O)N2CC(C)(C)Oc3ccc(-c4cccc(N5CC[C@@H](F)C5)c4)nc32)c1` , I see its EC1.5 (concentration giving 1.5-fold activation) listed as < 1000 nM

Looking up `O=C(Nc1ccnc(OC[C@H](O)CO)n1)N1CCOc2ccc(-c3cccc(C(F)(F)F)c3)nc21` , I see its EC1.5 (concentration giving 1.5-fold activation) listed as > 25000 nM

Looking up `O=C(Nc1cccc(N2CC3(CCO3)C2)n1)N1CCc2ccc(-c3cccc(C(F)(F)F)c3)nc21` , I see its EC1.5 (concentration giving 1.5-fold activation) listed as < 1000 nM
